- System: Pasteurella multocida
- Experimental Protocol: Antimicrobial activity against Pasteurella multocida clinical isolate after 24 hrs by broth microdilution method
- Type: functional
Quick reference: MIC of the listed items.

[
  {
    "Input Smiles": "Cc1ccc(NC(=O)c2cc(Cl)ccc2O)cc1",
    "Target Entity": "Pasteurella multocida",
    "MIC": "1.91 µM"
  },
  {
    "Input Smiles": "O=C(Nc1ccc(Cl)c(Cl)c1)c1ccc(Cl)cc1O",
    "Target Entity": "Pasteurella multocida",
    "MIC": "0.2 µM"
  },
  {
    "Input Smiles": "Cc1ccc(NC(=O)c2cc(Cl)ccc2OC(=O)[C@H](C)NC(=O)OCc2ccccc2)cc1",
    "Target Entity": "Pasteurella multocida",
    "MIC": "2.14 µM"
  },
  {
    "Input Smiles": "O=C(Nc1ccccc1)c1cc(Cl)ccc1O",
    "Target Entity": "Pasteurella multocida",
    "MIC": "1.01 µM"
  },
  {
    "Input Smiles": "COc1ccc(NC(=O)[C@@H](NC(=O)c2cc(Cl)ccc2O)C(C)C)cc1",
    "Target Entity": "Pasteurella multocida",
    "MIC": "> 679 µM"
  },
  {
    "Input Smiles": "CC1(C)S[C@@H]2[C@H](NC(=O)[C@H](N)c3ccccc3)C(=O)N2[C@H]1C(=O)O",
    "Target Entity": "Pasteurella multocida",
    "MIC": "1.43 µM"
  },
  {
    "Input Smiles": "O=C(N[C@@H](Cc1ccccc1)C(=O)Nc1ccc(Cl)c(Cl)c1)c1ccc(Cl)cc1O",
    "Target Entity": "Pasteurella multocida",
    "MIC": "> 552 µM"
  },
  {
    "Input Smiles": "Cc1ccc(NC(=O)[C@@H](NC(=O)c2cc(Cl)ccc2O)C(C)C)cc1",
    "Target Entity": "Pasteurella multocida",
    "MIC": "88.7 µM"
  },
  {
    "Input Smiles": "Cc1ccc(NC(=O)c2cc(Cl)ccc2OC(=O)[C@@H](NC(=O)OCc2ccccc2)C(C)C)cc1",
    "Target Entity": "Pasteurella multocida",
    "MIC": "4.04 µM"
  },
  {
    "Input Smiles": "Cc1ccc(NC(=O)[C@H](C)NC(=O)c2cc(Cl)ccc2O)cc1",
    "Target Entity": "Pasteurella multocida",
    "MIC": "> 769 µM"
  }
]
